Origin of values: patent US20230257396A1

Target Under Test: kinases (Homo sapiens)
Construct: purchased Eurofins/DiscoveRx; host or cells: E. coli BL21-derived host (T7 phage display) for most kinases; HEK-293 for the rest
Assay Overview: KINOMEscan kinase binding assay (Eurofins/DiscoveRx), % Ctrl
Condition Set: target FLT3; 1 μM
Property Name: % Ctrl, FLT3 (% Ctrl)
Entry rule: numbers only, all in % Ctrl.

Worked examples follow.
Smiles Representation	Endpoint Result
Cc1cc2c([nH]1)/C=C1\C(=O)Nc3cnc(cc31)-c1cn[nH]c1CNCCN(C)C2=O	11
CN1CCOCCOc2cc3c(cc2Cl)NC(=O)/C3=C\c2[nH]ccc2C1=O	15
CN1CCSCCOc2cc3c(cc2Cl)NC(=O)/C3=C\c2[nH]ccc2C1=O	1.6

Input line: Can you share its % Ctrl, FLT3? I mean this compound: Cc1cc2c([nH]1)/C=C1\C(=O)Nc3ccc(cc31)-c1c(C)nn(C)c1COCCN(C)C2=O
Output line: 24

====

Target Under Test: kinases (Homo sapiens, UniProt P36888, R834Q)
Construct: purchased Eurofins/DiscoveRx; host or cells: E. coli BL21-derived host (T7 phage display) for most kinases; HEK-293 for the rest
Assay Overview: KINOMEscan kinase binding assay (Eurofins/DiscoveRx), % Ctrl
Condition Set: target FLT3(R834Q); 1 μM
Some molecules, each annotated with its measured % Ctrl, FLT3(R834Q).
Could you kindly put the unit after your number?

Smiles Representation	% Ctrl, FLT3(R834Q)
Cc1cc2c([nH]1)/C=C1\C(=O)Nc3cnc(cc31)-c1cn[nH]c1CNCCN(C)C2=O	25 % Ctrl
Cc1nn(C)c2c1-c1ccc3c(c1)/C(=C/c1[nH]ccc1C(=O)N(C)CCCO2)C(=O)N3	69 % Ctrl
Cc1cc2c([nH]1)/C=C1\C(=O)Nc3ccc(cc31)-c1c(C)nn(C)c1COCCN(C)C2=O	97 % Ctrl
CN1CCSCCOc2cc3c(cc2Cl)NC(=O)/C3=C\c2[nH]ccc2C1=O	19 % Ctrl

Input line: State the recorded % Ctrl, FLT3(R834Q) for this entry: Cc1cc2c([nH]1)/C=C1\C(=O)Nc3cc(Cl)c(cc31)OCCO[C@@H](C(=O)N1CCN(C)CC1)CN(C)C2=O
Output line: 99 % Ctrl

Input line: I have this molecule here, Cc1cc2c([nH]1)/C=C1\C(=O)Nc3ccc(cc31)-c1c(noc1C)CNCCN(C)C2=O , and I need its recorded % Ctrl, FLT3(R834Q).
Output line: 39 % Ctrl

Input line: Given the molecule CN1CCOCCOc2cc3c(cc2Cl)NC(=O)/C3=C\c2[nH]ccc2C1=O , what is its reported % Ctrl, FLT3(R834Q)?
Output line: 33 % Ctrl

====

Listed next: entries and their corresponding % Ctrl, ABL1(H396P)-nonphosphorylated.
Target Under Test: kinases (Homo sapiens, UniProt P00519, H396P)
Construct: purchased Eurofins/DiscoveRx; host or cells: E. coli BL21-derived host (T7 phage display) for most kinases; HEK-293 for the rest
Assay Overview: KINOMEscan kinase binding assay (Eurofins/DiscoveRx), % Ctrl
Condition Set: 1 μM; ABL1(H396P)-nonphosphorylated
Give your result in % Ctrl as a bare value.

Some entries whose results are on file:
Compound	% Ctrl, ABL1(H396P)-nonphosphorylated / % Ctrl
Cc1cc2c([nH]1)/C=C1\C(=O)Nc3ccc(cc31)-c1ccnn1CCOCCNC2=O [Ex.39]	74
Cc1cc2c([nH]1)/C=C1\C(=O)Nc3cc(Cl)c(cc31)OCCO[C@@H](C(=O)N(C)C)CN(C)C2=O [Ex. 137]	38
Cc1cc2c([nH]1)/C=C1\C(=O)Nc3ccc(cc31)O[C@@H](C)COCCN(C)C2=O [Ex. 92]	0.3
Cc1cc2c([nH]1)/C=C1\C(=O)Nc3ccc(nc31)-c1ccccc1OCCCNC2=O [Ex.22]	90

Input line: I would be grateful if you could share the reported % Ctrl, ABL1(H396P)-nonphosphorylated for Cc1cc2c([nH]1)/C=C1\C(=O)Nc3cc(Cl)c(cc31)OCCO[C@@H](C(=O)NC1CNC1)CN(C)C2=O [Ex. 133] .
Output line: 49

====

Target Under Test: kinases (Homo sapiens, UniProt P07949, V804M)
Construct: purchased Eurofins/DiscoveRx; host or cells: E. coli BL21-derived host (T7 phage display) for most kinases; HEK-293 for the rest
Sequence (P07949 29-1114 V804M): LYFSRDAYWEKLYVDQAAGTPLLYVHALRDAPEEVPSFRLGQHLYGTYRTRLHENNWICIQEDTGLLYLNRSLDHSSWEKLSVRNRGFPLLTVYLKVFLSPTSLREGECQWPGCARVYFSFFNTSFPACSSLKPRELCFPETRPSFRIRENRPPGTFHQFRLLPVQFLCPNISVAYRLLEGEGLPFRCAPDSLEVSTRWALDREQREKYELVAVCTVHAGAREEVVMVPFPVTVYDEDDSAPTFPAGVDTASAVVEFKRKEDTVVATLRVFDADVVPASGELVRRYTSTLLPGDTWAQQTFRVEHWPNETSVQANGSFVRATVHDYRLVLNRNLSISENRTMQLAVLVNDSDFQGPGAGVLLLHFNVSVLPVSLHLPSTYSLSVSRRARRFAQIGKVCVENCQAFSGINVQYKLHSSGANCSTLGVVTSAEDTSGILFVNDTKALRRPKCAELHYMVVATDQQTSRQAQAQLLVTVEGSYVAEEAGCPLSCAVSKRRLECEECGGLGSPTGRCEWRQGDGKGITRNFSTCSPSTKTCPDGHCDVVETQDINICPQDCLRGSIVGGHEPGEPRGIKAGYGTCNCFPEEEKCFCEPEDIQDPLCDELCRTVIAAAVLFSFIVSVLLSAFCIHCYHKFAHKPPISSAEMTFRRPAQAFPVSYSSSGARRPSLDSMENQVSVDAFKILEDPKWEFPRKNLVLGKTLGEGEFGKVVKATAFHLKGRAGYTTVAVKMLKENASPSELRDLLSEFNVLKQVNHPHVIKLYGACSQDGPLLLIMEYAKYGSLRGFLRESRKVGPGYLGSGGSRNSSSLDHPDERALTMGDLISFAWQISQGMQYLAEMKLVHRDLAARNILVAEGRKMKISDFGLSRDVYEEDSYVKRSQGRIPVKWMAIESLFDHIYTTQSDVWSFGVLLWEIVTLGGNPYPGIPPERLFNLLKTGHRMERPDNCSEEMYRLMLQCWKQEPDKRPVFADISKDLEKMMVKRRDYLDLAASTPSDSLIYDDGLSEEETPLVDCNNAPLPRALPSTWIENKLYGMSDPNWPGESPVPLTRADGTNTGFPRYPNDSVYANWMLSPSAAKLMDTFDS
Assay Overview: KINOMEscan kinase binding assay (Eurofins/DiscoveRx), % Ctrl
Condition Set: 1 μM; target RET(V804M)
For each record, check the reported % Ctrl, RET(V804M): if it is below 0.9 % Ctrl write yes, else write no.

Previously resolved entries follow.
Smiles Representation	Discrete Label
CN1CCOc2cc3c(cc2Cl)NC(=O)/C3=C\c2[nH]ccc2C(=O)N(C)CC1	no
Cc1cc2c([nH]1)/C=C1\C(=O)Nc3cnc(cc31)-c1cnn(C)c1CN(C)CCN(C)C2=O	yes
Cc1cc2c([nH]1)/C=C1\C(=O)Nc3ccc(cc31)-c1c(noc1C(C)C)COCCN(C)C2=O	no

Continue with the next compound.
Input line: Determine if Cc1cc2c([nH]1)/C=C1\C(=O)Nc3ccc(cc31)-c1cnn(C)c1OCCCN(C)C2=O shows % Ctrl, RET(V804M) strictly lower than 0.9 % Ctrl.
Output line: yes

====

System: kinases
Assay Overview: KINOMEscan kinase binding assay (Eurofins/DiscoveRx), % Ctrl
Condition Set: 1 μM; target FLT3(ITD, D835V)
Listed here are compounds together with their documented % Ctrl, FLT3(ITD, D835V).
Kindly answer with a numeric value in % Ctrl, unit omitted.

// known answers, use as guide
Smiles Representation	Endpoint Result
Cc1cc2c([nH]1)/C=C1\C(=O)Nc3ccc(cc31)-c1cnn(C)c1OCCCN(C)C2=O	0.6
Cc1cc2c([nH]1)/C=C1\C(=O)Nc3cc(Cl)c(cc31)SCCOCCN(C)C2=O	0.4
Cc1cc2c([nH]1)/C=C1\C(=O)Nc3ccc(cc31)-c1c(noc1C(C)C)COCCN(C)C2=O	83
Cc1cc2c([nH]1)/C=C1\C(=O)Nc3cnc(cc31)-c1cnn(C)c1CN(C)CCN(C)C2=O	0.3

Now consider the entry below.
Input line: Using the record for CN1CCOc2cc3c(cc2Cl)NC(=O)/C3=C\c2[nH]ccc2C(=O)N(C)CC1 , report its % Ctrl, FLT3(ITD, D835V).
Output line: 0.3

====

Target Under Test: kinases (Homo sapiens, UniProt P36888, R834Q)
Construct: purchased Eurofins/DiscoveRx; host or cells: E. coli BL21-derived host (T7 phage display) for most kinases; HEK-293 for the rest
Assay Overview: KINOMEscan kinase binding assay (Eurofins/DiscoveRx), % Ctrl
Condition Set: 1 μM; target FLT3(R834Q)
Each item that follows carries a reported % Ctrl, FLT3(R834Q).
The reply should read as a number followed by its unit.

Check out these entries, answers already filled in.
Smiles Representation	% Ctrl, FLT3(R834Q)
Cc1cc2c([nH]1)/C=C1\C(=O)Nc3cnc(cc31)-c1cnn(C)c1CN(C)CCN(C)C2=O	16 % Ctrl
Cc1cc2c([nH]1)/C=C1\C(=O)Nc3ccc(cc31)-c1c(noc1C(C)C)COCCN(C)C2=O	100 % Ctrl
CN1CCOc2cc3c(cc2Cl)NC(=O)/C3=C\c2[nH]ccc2C(=O)N(C)CC1	13 % Ctrl
Cc1cc2c([nH]1)/C=C1\C(=O)Nc3ccc(cc31)-c1cnn(C)c1OCCCN(C)C2=O	2.1 % Ctrl

Query compound follows.
Input line: Name the reported % Ctrl, FLT3(R834Q) value associated with the compound Cc1cc2c([nH]1)/C=C1\C(=O)Nc3cc(Cl)c(cc31)SCCOCCN(C)C2=O
Output line: 5.9 % Ctrl

====

Tested on: kinases
Assay Overview: KINOMEscan kinase binding assay (Eurofins/DiscoveRx), % Ctrl
Condition Set: target EGFR(L747-S752del, P753S); 1 μM
Description: Kinase binding assays were performed at Eurofins/DiscoveRx using the general KINOMEscan Protocol (Fabian, M. A. et al., “A small molecule-kinase interaction map for clinical kinase inhibitors,” Nat. Biotechnol. 2005, 23(3):329-36). For most assays, kinase-tagged T7 phage strains were prepared in an E. coli host derived from the BL21 strain. […] The kinase concentration in the eluates was measured by qPCR. […]
Here the recorded % Ctrl, EGFR(L747-S752del, P753S) is given for each entry.
Give a bare numeral; the unit % Ctrl is implied.

Consider the reported % Ctrl, EGFR(L747-S752del, P753S) for these compounds:
Smiles Representation	Measurement Unit	% Ctrl, EGFR(L747-S752del, P753S)
Cc1nn(C)c2c1-c1ccc3c(c1)/C(=C/c1[nH]ccc1C(=O)N(C)CCCO2)C(=O)N3	% Ctrl	100
CN1CCOCCOc2cc3c(cc2Cl)NC(=O)/C3=C\c2[nH]ccc2C1=O	% Ctrl	89

Input line: Entry Cc1cc2c([nH]1)/C=C1\C(=O)Nc3ccc(cc31)-c1c(C)nn(C)c1COCCN(C)C2=O has what % Ctrl, EGFR(L747-S752del, P753S)?
Output line: 60

Input line: Value lookup for % Ctrl, EGFR(L747-S752del, P753S); key = Cc1cc2c([nH]1)/C=C1\C(=O)Nc3cnc(cc31)-c1cn[nH]c1CNCCN(C)C2=O
Output line: 56

Input line: Which % Ctrl, EGFR(L747-S752del, P753S) is reported for this compound? Cc1cc2c([nH]1)/C=C1\C(=O)Nc3cc(Cl)c(cc31)OCCO[C@@H](C(=O)N1CCN(C)CC1)CN(C)C2=O
Output line: 61

Input line: Reported % Ctrl, EGFR(L747-S752del, P753S) for Cc1cc2c([nH]1)/C=C1\C(=O)Nc3ccc(cc31)-c1c(noc1C)CNCCN(C)C2=O : what is it?
Output line: 77

Input line: Find the recorded % Ctrl, EGFR(L747-S752del, P753S) belonging to CN1CCSCCOc2cc3c(cc2Cl)NC(=O)/C3=C\c2[nH]ccc2C1=O and report it.
Output line: 57
